Hello, the source for this data is patent US4613596A, in case you need it.

What LD50 at 240 h was measured for each of the following?
assay: Acute toxicity (LD50) in mouse; format: in vivo; settings: in vivo, oral, Litchfield and Wilcoxon, 10 days observation, read-out: LD50, mouse, oral admin.
Numeric only. Scale: mg/kg

Can you share its LD50 at 240 h? I mean this molecule: CN(C)Cc1ccc(CSCCNC(=C[N+](=O)[O-])N2CCN(CCO)CC2)o1 [AU/004]
2700

Can you share its LD50 at 240 h? I mean this molecule: CN(C)Cc1ccc(CSCCNC(=C[N+](=O)[O-])NC2CC3C=CC2C3)o1 (stereo not drawn) [AU/020]
2700

Can you share its LD50 at 240 h? I mean this molecule: CN(C)Cc1ccc(CSCCNC(=C[N+](=O)[O-])N2CCCC2)o1 [AU/017]
2600

Can you share its LD50 at 240 h? I mean this molecule: CCN1CCCC(NC(=C[N+](=O)[O-])NCCSCc2ccc(CN(C)C)o2)C1 (stereo not drawn) [AU/003]
2800

Can you share its LD50 at 240 h? I mean this molecule: CN(C)Cc1ccc(CSCCNC(=C[N+](=O)[O-])N2CCC2)o1 [AU/008]
2600

Can you share its LD50 at 240 h? I mean this molecule: CN(C)Cc1ccc(CSCCNC(=C[N+](=O)[O-])NC2CCCCC2)o1 [AU/009]
2600

Can you share its LD50 at 240 h? I mean this molecule: CN(C)Cc1ccc(CSCCNC(=C[N+](=O)[O-])N2CCN(Cc3ccccc3)CC2)o1 [AU/006]
2700

Can you share its LD50 at 240 h? I mean this molecule: CN(C)Cc1ccc(CSCCNC(=C[N+](=O)[O-])NC2CCCCCC2)o1 [AU/015]
2800

Can you share its LD50 at 240 h? I mean this molecule: CN(C)Cc1ccc(CSCCNC(=C[N+](=O)[O-])NC2CCCC2)o1 [AU/016]
2700

---

What LD50 at 240 h was measured for each of the following?
experiment: Acute toxicity (LD50) in mouse; format: in vivo; conditions: in vivo, im, intramuscular, 10 days observation, read-out: LD50, mouse, intram. admin.
Numeric only. Scale: mg/kg

Can you share its LD50 at 240 h? I mean this molecule: CCN1CCCC(NC(=C[N+](=O)[O-])NCCSCc2ccc(CN(C)C)o2)C1 (centres unmarked) [AU/003]
300

Can you share its LD50 at 240 h? I mean this molecule: CN(C)Cc1ccc(CSCCNC(=C[N+](=O)[O-])N2CCCC2)o1 [AU/017]
300

Can you share its LD50 at 240 h? I mean this molecule: CN(C)Cc1ccc(CSCCNC(=C[N+](=O)[O-])N2CCC(Cc3ccccc3)CC2)o1 [AU/005]
300

Can you share its LD50 at 240 h? I mean this molecule: CN(C)Cc1ccc(CSCCNC(=C[N+](=O)[O-])NN2CCCCCC2)o1 [AU/014]
300

Can you share its LD50 at 240 h? I mean this molecule: CN(C)Cc1ccc(CSCCNC(=C[N+](=O)[O-])NC2CC3C=CC2C3)o1 (centres unmarked) [AU/020]
300

Can you share its LD50 at 240 h? I mean this molecule: CN(C)Cc1ccc(CSCCNC(=C[N+](=O)[O-])N2CCN(Cc3ccccc3)CC2)o1 [AU/006]
300

Can you share its LD50 at 240 h? I mean this molecule: CN(C)Cc1ccc(CSCCNC(=C[N+](=O)[O-])NC2CCCC2)o1 [AU/016]
300

Can you share its LD50 at 240 h? I mean this molecule: `CN(C)Cc1ccc(CSCCNC(=C[N+](=O)[O-])N2CCCCC2)o1`
300

Can you share its LD50 at 240 h? I mean this molecule: CN(C)Cc1ccc(CSCCNC(=C[N+](=O)[O-])N[C@H]2C[C@H]3CC[C@@H]2C3)o1 (relative stereo) [AU/019]
300

Can you share its LD50 at 240 h? I mean this molecule: CN(C)Cc1ccc(CSCCNC(=C[N+](=O)[O-])N2CCN(CCO)CC2)o1 [AU/004]
300

Can you share its LD50 at 240 h? I mean this molecule: CN(C)Cc1ccc(CSCCNC(=C[N+](=O)[O-])NC2CCCCC2)o1 [AU/009]
300

Can you share its LD50 at 240 h? I mean this molecule: CN(C)Cc1ccc(CSCCNC(=C[N+](=O)[O-])N2CCOCC2)o1 [AU/018]
350

Can you share its LD50 at 240 h? I mean this molecule: CN(C)Cc1ccc(CSCCNC(=C[N+](=O)[O-])N2CC2)o1 [AU/007]
310

Can you share its LD50 at 240 h? I mean this molecule: CN(C)Cc1ccc(CSCCNC(=C[N+](=O)[O-])NC2CCCCCC2)o1 [AU/015]
300

Can you share its LD50 at 240 h? I mean this molecule: CN(C)Cc1ccc(CSCCNC(=C[N+](=O)[O-])N2CCC2)o1 [AU/008]
310

Can you share its LD50 at 240 h? I mean this molecule: CN(C)Cc1ccc(CSCCNC(=C[N+](=O)[O-])N2CCCCCC2)o1 [AU/013]
300

Can you share its LD50 at 240 h? I mean this molecule: CC1CCN(C(=C[N+](=O)[O-])NCCSCc2ccc(CN(C)C)o2)CC1 [AU/002]
320

---

assay: Acute toxicity (LD50) in rat; type: in vivo; settings: in vivo, intravenous, 10 days observation, read-out: LD50, rat, intrav. admin.
What LD50 at 240 h was measured for each of the following?

Can you share its LD50 at 240 h? I mean this compound: `CN(C)Cc1ccc(CSCCNC(=C[N+](=O)[O-])N2CCCCC2)o1`
100 mg/kg

Can you share its LD50 at 240 h? I mean this compound: `CN(C)Cc1ccc(CSCCNC(=C[N+](=O)[O-])N2CCN(CCO)CC2)o1`
110 mg/kg

Can you share its LD50 at 240 h? I mean this compound: `CN(C)Cc1ccc(CSCCNC(=C[N+](=O)[O-])N2CCC2)o1`
100 mg/kg

Can you share its LD50 at 240 h? I mean this compound: `CN(C)Cc1ccc(CSCCNC(=C[N+](=O)[O-])N2CCCCCC2)o1`
100 mg/kg

Can you share its LD50 at 240 h? I mean this compound: `CN(C)Cc1ccc(CSCCNC(=C[N+](=O)[O-])NC2CCCCCC2)o1`
100 mg/kg

Can you share its LD50 at 240 h? I mean this compound: `CN(C)Cc1ccc(CSCCNC(=C[N+](=O)[O-])N2CCCC2)o1`
100 mg/kg

Can you share its LD50 at 240 h? I mean this compound: CN(C)Cc1ccc(CSCCNC(=C[N+](=O)[O-])N[C@H]2C[C@H]3CC[C@@H]2C3)o1 (relative stereo)
120 mg/kg

Can you share its LD50 at 240 h? I mean this compound: `CC1CCN(C(=C[N+](=O)[O-])NCCSCc2ccc(CN(C)C)o2)CC1`
100 mg/kg

Can you share its LD50 at 240 h? I mean this compound: `CN(C)Cc1ccc(CSCCNC(=C[N+](=O)[O-])NC2CCCCC2)o1`
110 mg/kg

Can you share its LD50 at 240 h? I mean this compound: `CN(C)Cc1ccc(CSCCNC(=C[N+](=O)[O-])NC2CCCC2)o1`
100 mg/kg

Can you share its LD50 at 240 h? I mean this compound: `CN(C)Cc1ccc(CSCCNC(=C[N+](=O)[O-])N2CCN(Cc3ccccc3)CC2)o1`
100 mg/kg

Can you share its LD50 at 240 h? I mean this compound: `CN(C)Cc1ccc(CSCCNC(=C[N+](=O)[O-])N2CC2)o1`
100 mg/kg

Can you share its LD50 at 240 h? I mean this compound: CCN1CCCC(NC(=C[N+](=O)[O-])NCCSCc2ccc(CN(C)C)o2)C1 (centres unmarked)
100 mg/kg

Can you share its LD50 at 240 h? I mean this compound: CN(C)Cc1ccc(CSCCNC(=C[N+](=O)[O-])NC2CC3C=CC2C3)o1 (centres unmarked)
110 mg/kg

Can you share its LD50 at 240 h? I mean this compound: `CN(C)Cc1ccc(CSCCNC(=C[N+](=O)[O-])NN2CCCCCC2)o1`
100 mg/kg

Can you share its LD50 at 240 h? I mean this compound: `CN(C)Cc1ccc(CSCCNC(=C[N+](=O)[O-])N2CCOCC2)o1`
100 mg/kg

Can you share its LD50 at 240 h? I mean this compound: `CN(C)Cc1ccc(CSCCNC(=C[N+](=O)[O-])N2CCC(Cc3ccccc3)CC2)o1`
110 mg/kg

---

assay: Acute toxicity (LD50) in mouse; format: in vivo; details: in vivo, intravenous, 10 days observation, read-out: LD50, mouse, intrav. admin.
What LD50 at 240 h was measured for each of the following?
Numeric only. Scale: mg/kg

Can you share its LD50 at 240 h? I mean this compound: CN(C)Cc1ccc(CSCCNC(=C[N+](=O)[O-])NC2CCCC2)o1 [AU/016]
90

Can you share its LD50 at 240 h? I mean this compound: CN(C)Cc1ccc(CSCCNC(=C[N+](=O)[O-])NC2CC3C=CC2C3)o1 (centres unmarked) [AU/020]
110

Can you share its LD50 at 240 h? I mean this compound: CN(C)Cc1ccc(CSCCNC(=C[N+](=O)[O-])N2CCCC2)o1 [AU/017]
100

Can you share its LD50 at 240 h? I mean this compound: CN(C)Cc1ccc(CSCCNC(=C[N+](=O)[O-])N2CCC2)o1 [AU/008]
100

Can you share its LD50 at 240 h? I mean this compound: CN(C)Cc1ccc(CSCCNC(=C[N+](=O)[O-])N2CCN(CCO)CC2)o1 [AU/004]
95

Can you share its LD50 at 240 h? I mean this compound: CN(C)Cc1ccc(CSCCNC(=C[N+](=O)[O-])N2CCCCCC2)o1 [AU/013]
90

Can you share its LD50 at 240 h? I mean this compound: CN(C)Cc1ccc(CSCCNC(=C[N+](=O)[O-])N2CC2)o1 [AU/007]
100

Can you share its LD50 at 240 h? I mean this compound: CN(C)Cc1ccc(CSCCNC(=C[N+](=O)[O-])N2CCN(Cc3ccccc3)CC2)o1 [AU/006]
90
